Data origin: PubChem BioAssay (NCI)

experiment: NCI Yeast Anticancer Drug Screen. Data for the bub3 strain (AID 167); conditions: S. cerevisiae bub3 mutant strain, stronger effect = higher value; at 50.0 µM unless noted
Compounds without any hit were thinned out: in the full panel of roughly 79,000, 15% have a hit.
experimental.endpoint: growth inhibition (%)
Number only, in %; omit the unit.

Below, 6 compounds whose answers are already recorded.
O=C(CSS(=O)(=O)O)Nc1ccccc1 = 9.65
NC(=O)c1ccccc1NC(=O)C(=O)C(C(=O)c1ccc(Cl)c(Cl)c1)C1OC(=O)c2ccccc21 (centres undefined) = 57.9
O=C(/C=C/c1ccccc1)CSc1ncn[nH]1 = 19.4
O=C(Nc1cc(Cl)c(Cl)cc1Cl)C(=O)C(C(=O)c1ccc(Cl)c(Cl)c1)C1OC(=O)c2ccccc21 (centres undefined) = 4.05
O=C(N/N=C/c1ccc2c(c1)OCO2)c1ccccc1 = 1.8
COc1ccc(SSc2ccc(OC)cc2C(=O)O)c(C(=O)O)c1 = -36.1

Moving on to another compound below.
Determine its reported growth inhibition: CCOc1ccc(N=Nc2c(O)n(-c3ccc(Cl)cc3)c(=S)n(-c3ccccc3)c2=O)cc1
32.5

---

experiment: NCI Yeast Anticancer Drug Screen. Data for the bub3 strain (AID 167); conditions: S. cerevisiae bub3 mutant strain, stronger effect = higher value; at 50.0 µM unless noted
This is part of a sample that, as a whole, favours compounds with a hit. Of some 79,000 tested, about 15% had one in any assay. Calls of active or inactive are those of the source. Rule as the data show it: active = growth inhibition above about 70%; inactive = the rest.
experimental.endpoint: growth inhibition

Below, 8 compounds whose answers are already recorded.
COc1cccc(C2C(C(=O)Nc3cc(=O)n(C)c(=O)n3C)=C(C)NC(C)=C2C(=O)Nc2cc(=O)n(C)c(=O)n2C)c1O = 2.55% (inactive)
Cc1cc(C)c(S(=O)(=O)Oc2ccccc2)c(C)c1 = 11.8% (inactive)
COc1ccc2c(c1)c(CC(=O)O)c(C)n2Cc1ccccc1 = 17.4% (inactive)
COc1ccc(C2CC(=O)N(c3ncccn3)C(=O)C2)cc1 = -12.3% (inactive)
CC(C)CC1N=C(NN=C(CCl)CCl)OP1(=O)NCCCCCCNP1(=O)OC(NN=C(CCl)CCl)=NC1CC(C)C (stereo unspecified) = 24.8% (inactive)
CC1CC(Nc2ccc(Br)cc2)N(C(=O)c2ccc(Br)cc2)O1 (stereo unspecified) = -35% (inactive)
Cc1ccc(O)c(Cl)c1C = -26.3% (inactive)
CC(C)(C)C(=O)OCC1CCC(n2cnc3c(=O)[nH]c(N)nc32)O1 (stereo unspecified) = -2.25% (inactive)

Determine its reported growth inhibition: Cc1ncc(C(N)=S)c(N)n1
-8.55% (inactive)

Determine its reported growth inhibition: CCOC(=O)N1CCN(C(=O)CC(C)=O)CC1
4.45% (inactive)

Determine its reported growth inhibition: O=C1CC(Cc2n[nH]c3c2CCCC3)CC(=O)N1
-2.15% (inactive)

---

assay: NCI Yeast Anticancer Drug Screen. Data for the rad50 strain (AID 155);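 further: 0% = growth of vehicle-only cultures of the same strain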; details: S. cerevisiae rad50 strain growth inhibition, stronger effect = higher value; at 50.0 µM unless noted
The panel holds about 79,000 compounds, 15% with a hit somewhere; the sample as a whole holds those more often.
growth inhibition: recorded values
Number only, in %; omit the unit.

Below, 3 molecules whose answers are already recorded.
CCOC(=O)C(Cc1ccccc1)NC(=O)c1ccc(N=NN(C)C)cc1 (centres undefined) = -19.8
N=C(N)C1CN(CC=O)C(=O)NC1=O (centres undefined) = -11.7
CCOc1ccc(C(C)c2cc3c(cc2OCC(=O)O)OCO3)cc1 (centres undefined) = 0.65

Determine its reported growth inhibition: O=C1CN(C2OC(CO)C(O)C2O)C(=O)NC1=O (centres undefined)
41.8
